Target: Histone-lysine N-methyltransferase EHMT2 (Homo sapiens)
Test: qHTS Assay for Inhibitors of Histone Lysine Methyltransferase G9a; note: % is set by controls: 0 for no effect and ±100 for the full control effect; nearly all actives have a fitted effect of over 75% in size
Conditions: G9a H3K9 monomethylation, AlphaScreen, 2 h; series mostly up to 59 µM
Hit rate of the full screen: of about 350,000 compounds, about 31,000 (8.9%) were called active. Another 15% or so got no clear call; they are omitted. This excerpt belongs to a sample that is enriched for actives.
activity, negative = inhibition reference

Lookup result for Cc1cc(=O)[nH]c(SCC(=O)Nc2ccc(Br)cc2)n1 ; measured activity, negative = inhibition: 10.1% [at 12.7 µM] (inactive)

Lookup result for Cc1cc(=O)[nH]c(SCC(=O)N2c3ccccc3CC2C)n1 (stereo unspecified) ; measured activity, negative = inhibition: -1.7% [at 12.7 µM] (inactive)

Lookup result for COc1ccc(S(=O)(=O)NCCCCOc2ccc(Cl)cc2)cc1 ; measured activity, negative = inhibition: 21.3% [at 2.33 µM] (inactive)

Lookup result for COc1ccc(C(=O)N2CCN(c3ncccn3)CC2)cc1S(=O)(=O)N1CCOCC1 ; measured activity, negative = inhibition: 10.4% [at 12.7 µM] (inactive)

Lookup result for Cc1nn(Cc2ccccc2)c(C)c1CNC(=O)c1ccc(F)c(S(=O)(=O)N2CCOCC2)c1 ; measured activity, negative = inhibition: -14.2% [at 12.7 µM] (inactive)

Lookup result for COc1ccc(CNC(=O)c2ccc3oc(C(C)C)nc3c2)cc1 ; measured activity, negative = inhibition: 12% [at 0.501 µM] (inactive)
